target: human ether-à-go-go-related gene (hERG) potassium channel (human, UniProt Q12809); test: primary screen, population patch clamp on CHO cells stably expressing hERG; higher = less effect of the substance
Sequence (Q12809 whole entry, looked up): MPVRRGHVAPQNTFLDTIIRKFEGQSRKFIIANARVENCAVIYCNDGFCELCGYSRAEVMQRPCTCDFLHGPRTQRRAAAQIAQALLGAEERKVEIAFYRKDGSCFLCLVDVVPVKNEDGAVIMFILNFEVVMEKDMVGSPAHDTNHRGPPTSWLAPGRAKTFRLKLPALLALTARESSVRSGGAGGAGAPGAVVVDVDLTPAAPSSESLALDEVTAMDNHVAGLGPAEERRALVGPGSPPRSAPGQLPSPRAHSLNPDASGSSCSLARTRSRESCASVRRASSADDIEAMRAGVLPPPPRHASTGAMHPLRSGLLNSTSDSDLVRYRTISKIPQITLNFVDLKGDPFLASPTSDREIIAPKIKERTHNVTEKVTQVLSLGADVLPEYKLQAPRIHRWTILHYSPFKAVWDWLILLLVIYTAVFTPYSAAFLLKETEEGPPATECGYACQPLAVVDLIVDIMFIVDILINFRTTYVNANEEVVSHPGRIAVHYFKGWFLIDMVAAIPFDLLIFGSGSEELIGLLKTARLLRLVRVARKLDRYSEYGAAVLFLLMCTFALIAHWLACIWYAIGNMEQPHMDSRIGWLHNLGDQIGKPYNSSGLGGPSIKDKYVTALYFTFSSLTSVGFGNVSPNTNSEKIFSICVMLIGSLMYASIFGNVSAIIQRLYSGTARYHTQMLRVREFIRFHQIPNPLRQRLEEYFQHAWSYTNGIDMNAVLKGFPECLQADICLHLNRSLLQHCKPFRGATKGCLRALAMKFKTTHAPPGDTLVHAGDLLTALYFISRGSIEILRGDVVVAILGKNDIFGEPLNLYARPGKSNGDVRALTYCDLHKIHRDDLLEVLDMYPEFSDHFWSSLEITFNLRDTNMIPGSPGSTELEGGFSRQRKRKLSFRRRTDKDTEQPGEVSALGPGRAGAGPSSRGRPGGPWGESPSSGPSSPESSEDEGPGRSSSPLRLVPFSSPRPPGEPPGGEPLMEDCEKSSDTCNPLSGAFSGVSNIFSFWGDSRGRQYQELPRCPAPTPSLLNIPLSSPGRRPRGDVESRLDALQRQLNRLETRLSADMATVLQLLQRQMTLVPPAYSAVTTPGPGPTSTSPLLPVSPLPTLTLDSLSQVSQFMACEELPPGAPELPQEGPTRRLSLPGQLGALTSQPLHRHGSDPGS
Out of some 310,000 compounds screened, about 14,000 (4.5%) showed an effect of 50% or more. The effect is printed as a negative number. The list comes from a sample in which strong results are over-represented; it also holds close analogues and randomly drawn compounds.
# hERG current change (%, negative = inhibition) at 10uM values compiled below
The reply should contain only the number, in %.

Check out these entries, answers already filled in.
# Molecule, Obs value
rows = [
    ("CCc1nc(CN2CCN(c3ccc(C(F)(F)F)cn3)CC2)c(C)[nH]1", -55.6),
    ("Cc1cccc(-n2c(O)c(C=NC3CCS(=O)(=O)C3)c3ccccc3c2=O)c1C (stereo not drawn)", -54.1),
    ("CS(=O)(=O)Nc1ccc(N2CCN(c3ccc(C(F)(F)F)cn3)CC2)nc1", -4.03),
]

Param item: `CCc1nc(CN2CCN(c3cc(C(F)(F)F)ccn3)CC2)c(C)[nH]1` ; param system: human ether-à-go-go-related gene (hERG) potassium channel (human, UniProt Q12809); output hERG current change (%, negative = inhibition) at 10uM: -45.2

The reported hERG current change (%, negative = inhibition) at 10uM value, human ether-à-go-go-related gene (hERG) potassium channel (human, UniProt Q12809), for `COc1ccccc1CNS(=O)(=O)c1c(C(=O)N2CCCCC2)c(C)n(C)c1C` reads 5.51

Reported hERG current change (%, negative = inhibition) at 10uM (human ether-à-go-go-related gene (hERG) potassium channel (human, UniProt Q12809)) for entry `CCN(c1cccc(C)c1)S(=O)(=O)c1c(C)[nH]c(C)c1C(=O)N1CCCCC1` is 5.45

Reported human ether-à-go-go-related gene (hERG) potassium channel (human, UniProt Q12809) hERG current change (%, negative = inhibition) at 10uM for item `O=C(c1ccco1)N1CCN(S(=O)(=O)c2cc(Cl)ccc2Cl)CC1` was -21.5

Short answer on human ether-à-go-go-related gene (hERG) potassium channel (human, UniProt Q12809) for Cc1ccc(-n2c(O)c(C=NC3CCS(=O)(=O)C3)c3ccccc3c2=O)c(C)c1 (stereo not drawn) , hERG current change (%, negative = inhibition) at 10uM: -0.346

Record `O=S(=O)(c1cc(Cl)ccc1Cl)N1CCN(Cc2ccco2)CC1` / human ether-à-go-go-related gene (hERG) potassium channel (human, UniProt Q12809), hERG current change (%, negative = inhibition) at 10uM recorded as -54.1

###

molecular target: human ether-à-go-go-related gene (hERG) potassium channel (human); assay: primary screen, population patch clamp on CHO cells stably expressing hERG; higher = less effect of the substance;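 note: peak tail current of the secondary pulse compared with the same well before compound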
About 14,000 (4.5%) of roughly 310,000 compounds showed an effect of 50% or more. Effects have a minus sign here. For the sample, strong results were picked, then their nearest neighbours and some compounds at random.
Readout label: hERG current change (%, negative = inhibition) at 10uM (%)
The figure you give is taken to be in %; do not add the unit.

Answered examples (4):
# Compound, Obs value
records = [
    ("CC(C)CNC(=O)COC(=O)/C=C/c1ccccc1[N+](=O)[O-]", 5.61),
    ("O=C(Nc1ccc([N+](=O)[O-])cc1)C1(c2ccccc2)CCOCC1", -69.1),
    ("CSc1ncccc1C(=O)OCC(=O)N(CC(C)C)C1CCS(=O)(=O)C1 (centres unmarked)", -0.0479),
    ("COCCCNC(=O)CC(NS(=O)(=O)c1ccc(F)cc1)c1ccc(OC)cc1 (centres unmarked)", -1.73),
]

--- query ---
hERG current change (%, negative = inhibition) at 10uM in this record for `CCCC(=O)N(CCN(Cc1ccccc1)C(=O)CCC)Cc1ccccc1` : -42.5

###

Reported hERG current change (%, negative = inhibition) at 10uM values are given for each entry in this list.
target: human ether-à-go-go-related gene (hERG) potassium channel (human, UniProt Q12809); test: primary screen, population patch clamp on CHO cells stably expressing hERG; higher = less effect of the substance;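 note: peak tail current of the secondary pulse compared with the same well before compound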
Hit rate of the full screen: of about 310,000 compounds, about 14,000 (4.5%) showed an effect of 50% or more. The effect is printed as a negative number. The full list was thinned out, with strong results kept by preference.
Express it in %; write the number only.

Solved entries:
# Molecule, Obs value
measured = [
    ("Cc1ccc(C(=O)Nc2ccc(NC(=O)c3ccc(C)o3)cc2)o1", -1.94),
    ("O=c1[nH]c(=O)n(C2CCCCCC2)c(O)c1C=NCc1cccnc1", -9.79),
]

Entry NS(=O)(=O)c1cc(C(=O)NC2CCSc3ccccc32)ccc1Cl (stereo not drawn) — recorded hERG current change (%, negative = inhibition) at 10uM = 7.27

Reported hERG current change (%, negative = inhibition) at 10uM for `Cl.OCCNCc1c(OCc2ccc(Cl)cc2)ccc2ccccc12` was -77.4

Looking up O=C(NNC1CC(=O)N(c2ccc3c(c2)OCCO3)C1=O)c1ccc(Cl)cc1 (stereo not drawn) , I see its hERG current change (%, negative = inhibition) at 10uM listed as 10.1

In plain terms, `Cc1nc(=O)c(-c2ccccc2)c(C)n1-c1ccc(O)cc1` has a documented hERG current change (%, negative = inhibition) at 10uM of 9.6

Entry under test: `COc1ccc(CCNC(=O)c2ccccc2OCc2c(C)noc2C)cc1` . Its hERG current change (%, negative = inhibition) at 10uM was -26.4

Per the records, this molecule ( `N#CCc1nc(CSc2nc3ccccc3s2)cs1` ) has hERG current change (%, negative = inhibition) at 10uM equal to -2.16

`O=C(Cn1cnc2ccccc21)Nc1ccc(F)c(F)c1` has a reported hERG current change (%, negative = inhibition) at 10uM of 8.41

###

Measured hERG current change (%, negative = inhibition) at 10uM by item
biological target: human ether-à-go-go-related gene (hERG) potassium channel (human, UniProt Q12809); assay: primary screen, population patch clamp on CHO cells stably expressing hERG; higher = less effect of the substance;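 note: peak tail current of the secondary pulse compared with the same well before compound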
In all, about 310,000 compounds went through this assay and about 14,000 (4.5%) showed an effect of 50% or more. Effects have a minus sign here. What follows is part of a selection rich in strong results, with near analogues and random picks from the rest.
Record the value in %, omitting the unit from your answer.

# annotated cases, reported hERG current change (%, negative = inhibition) at 10uM shown
# Compound, Test target, Obs value
rows = [
    ("Cn1cc(CN2CCC(C(O)CCc3ccccc3)CC2)c(-c2ccccc2F)n1 (stereo not shown)", "human ether-à-go-go-related gene (hERG) potassium channel (human, UniProt Q12809)", -71.3),
    ("CCOC(=O)C1(Cc2ccc(OC)cc2)CCN(C(=O)CCN2CCCC2=O)CC1", "human ether-à-go-go-related gene (hERG) potassium channel (human, UniProt Q12809)", -3.22),
    ("OC1CCCN(Cc2cn(Cc3ccccc3)nc2-c2cc3ccccc3o2)C1 (stereo not shown)", "human ether-à-go-go-related gene (hERG) potassium channel (human, UniProt Q12809)", -44.7),
    ("CCOC(=O)C1(Cc2ccccc2Cl)CCN(C(=O)CCn2ccnc2C)CC1", "human ether-à-go-go-related gene (hERG) potassium channel (human, UniProt Q12809)", -52.6),
    ("OC1CCN(Cc2cn(Cc3ccccc3)nc2-c2cc3ccccc3o2)CC1", "human ether-à-go-go-related gene (hERG) potassium channel (human, UniProt Q12809)", -50.7),
    ("CCOC(=O)C1(CCc2ccccc2)CCN(C(=O)CCn2cncn2)CC1", "human ether-à-go-go-related gene (hERG) potassium channel (human, UniProt Q12809)", -63.2),
]

Looking up `COc1cccc(CNC(=O)c2nnn(CC(=O)Nc3ccc(C)c(C)c3)c2N)c1` , I see its hERG current change (%, negative = inhibition) at 10uM listed as 1.8

So, `CCOC(=O)/C(C#N)=C\C=C1C=CN(C)C=C1` ? Its hERG current change (%, negative = inhibition) at 10uM was 0.0919

According to the records, this compound `CN(CCC#N)C(=O)COC(=O)[C@H](Cc1ccccc1)N1C(=O)c2ccccc2C1=O` displays hERG current change (%, negative = inhibition) at 10uM of -2.25

Sure, the documented hERG current change (%, negative = inhibition) at 10uM for `CCOC(=O)C1(CCCc2ccccc2)CCN(C(=O)CCCn2cncn2)CC1` is -44.1

###

biological target: human ether-à-go-go-related gene (hERG) potassium channel (human); experiment: primary screen, population patch clamp on CHO cells stably expressing hERG; higher = less effect of the substance;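 note: peak tail current of the secondary pulse compared with the same well before compound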
Out of some 310,000 compounds screened, about 14,000 (4.5%) showed an effect of 50% or more. The effect is printed as a negative number. For the sample, strong results were picked, then their nearest neighbours and some compounds at random.
Readout label: hERG current change (%, negative = inhibition) at 10uM (%)
Give the quantity in %, number only.

# Compound, Obs value
records = [
    ("O=C1c2ccc(Oc3ccc4c(c3)C(=O)N(CCCCO)C4=O)cc2C(=O)N1CCCCO", -24.1),
]

// recorded hERG current change (%, negative = inhibition) at 10uM for `CCOC(=O)CSc1nc2cc(C(=O)OC)ccc2c(=O)n1CCN1CCOCC1` : -38.4

The compound identified as COc1ccc2cc(C(=O)C3CCCN(C4CCOCC4)C3)ccc2c1 (centres unmarked) registered its hERG current change (%, negative = inhibition) at 10uM at -63.5

Field hERG current change (%, negative = inhibition) at 10uM (entry `CCCn1c(CCC(=O)O)nc2cc(S(=O)(=O)N3CCCC3)ccc21` ) reads 12.1

Value of hERG current change (%, negative = inhibition) at 10uM reported for the compound CC(C)Oc1cccc(C(=O)C2CCCN(C3CCOCC3)C2)c1 (centres unmarked) is -10.5

Kindly note the recorded hERG current change (%, negative = inhibition) at 10uM for COc1ccc(C(=O)C2CCCN(C(=O)C3CCOCC3)C2)c(C)c1 (centres unmarked) , which is 27

Value of measured hERG current change (%, negative = inhibition) at 10uM for the entry `Cc1ccc(NC(=O)Nc2sc(=S)n(C)c2C)cc1` : 15.4

Sample Cc1ccc(N2CC(C(=O)Nc3nnc(SCCN4CCOCC4)s3)CC2=O)cc1C (centres unmarked) ; hERG current change (%, negative = inhibition) at 10uM observed: 20.7

Looking up Cc1ccc2c(c1)C1CN(C)CCC1N2C(=O)c1cccnc1Cl.Cl (centres unmarked) , I found its hERG current change (%, negative = inhibition) at 10uM recorded as 1.59
